Test system: Micrococcus luteus
Assay: Antibacterial activity against Micrococcus luteus IFO 3232 assessed as growth inhibition at 200 ug/disc after 24 hrs by agar disc-diffusion method
Assay type: functional
Details: IFO 3232, 24 h, read-out: DIZ
observation.type: zone of inhibition at 200 µg/disc (mm)
Write it as a number; the unit mm goes unstated.

What measured zone of inhibition at 200 µg/disc is associated with CCOC(=O)N1CCN(Cn2nc(C34CC5CC(CC(C5)C3)C4)n(/N=C/c3ccccc3O)c2=S)CC1 on Micrococcus luteus?
16

Next:
What measured zone of inhibition at 200 µg/disc is associated with Cn1c(C23CC4CC(CC(C4)C2)C3)nn(CN2CCN(c3ccccc3)CC2)c1=S on Micrococcus luteus?
14

What measured zone of inhibition at 200 µg/disc is associated with FC(F)(F)c1ccccc1NCn1nc(C23CC4CC(CC(C4)C2)C3)n(-c2ccc(Cl)cc2)c1=S on Micrococcus luteus?
14

What measured zone of inhibition at 200 µg/disc is associated with Oc1ccccc1/C=N/n1c(C23CC4CC(CC(C4)C2)C3)nn(CN2CCN(Cc3ccccc3)CC2)c1=S on Micrococcus luteus?
17

What measured zone of inhibition at 200 µg/disc is associated with COc1ccccc1N1CCN(Cn2nc(C34CC5CC(CC(C5)C3)C4)n(/N=C/c3ccccc3O)c2=S)CC1 on Micrococcus luteus?
25

What measured zone of inhibition at 200 µg/disc is associated with Fc1cccc(F)c1NCn1nc(C23CC4CC(CC(C4)C2)C3)n(-c2ccc(Cl)cc2)c1=S on Micrococcus luteus?
17

What measured zone of inhibition at 200 µg/disc is associated with FC(F)(F)c1cccc(NCn2nc(C34CC5CC(CC(C5)C3)C4)n(-c3ccc(Cl)cc3)c2=S)c1 on Micrococcus luteus?
17

What measured zone of inhibition at 200 µg/disc is associated with S=c1n(CN2CCN(Cc3ccccc3)CC2)nc(C23CC4CC(CC(C4)C2)C3)n1-c1ccc(Cl)cc1 on Micrococcus luteus?
11

What measured zone of inhibition at 200 µg/disc is associated with CCN1CCN(Cn2nc(C34CC5CC(CC(C5)C3)C4)n(/N=C/c3ccc(O)cc3)c2=S)CC1 on Micrococcus luteus?
25

What measured zone of inhibition at 200 µg/disc is associated with Oc1ccccc1/C=N/n1c(C23CC4CC(CC(C4)C2)C3)nn(CN2CCN(c3ccccc3)CC2)c1=S on Micrococcus luteus?
18

What measured zone of inhibition at 200 µg/disc is associated with COc1ccccc1N1CCN(Cn2nc(C34CC5CC(CC(C5)C3)C4)n(C)c2=S)CC1 on Micrococcus luteus?
19

What measured zone of inhibition at 200 µg/disc is associated with COc1ccccc1N1CCN(Cn2nc(C34CC5CC(CC(C5)C3)C4)n(/N=C/c3ccc(O)cc3)c2=S)CC1 on Micrococcus luteus?
18

What measured zone of inhibition at 200 µg/disc is associated with CCOC(=O)N1CCN(Cn2nc(C34CC5CC(CC(C5)C3)C4)n(/N=C/c3ccc(O)cc3)c2=S)CC1 on Micrococcus luteus?
14

----------
System: Bacillus subtilis
Experiment: Antibacterial activity against Bacillus subtilis IFO 3007 assessed as growth inhibition at 200 ug/disc after 24 hrs by agar disc-diffusion method
Format: functional
Settings: IFO 3007, 24 h, read-out: DIZ
observation.type: zone of inhibition at 200 µg/disc (mm)
Write it as a number; the unit mm goes unstated.

Observe how each entry below is paired with its result.
Need zone of inhibition at 200 µg/disc, item S=c1n(CNc2cc(Cl)cc(Cl)c2)nc(C23CC4CC(CC(C4)C2)C3)n1-c1ccc(Cl)cc1
13

Need zone of inhibition at 200 µg/disc, item COc1ccccc1N1CCN(Cn2nc(C34CC5CC(CC(C5)C3)C4)n(-c3ccc(Cl)cc3)c2=S)CC1
18

Need zone of inhibition at 200 µg/disc, item Cn1c(C23CC4CC(CC(C4)C2)C3)nn(CN2CCN(c3cccc(C(F)(F)F)c3)CC2)c1=S
33

Need zone of inhibition at 200 µg/disc, item Cn1c(C23CC4CC(CC(C4)C2)C3)nn(CNc2ccccc2)c1=S
12

Need zone of inhibition at 200 µg/disc, item Oc1ccccc1/C=N/n1c(C23CC4CC(CC(C4)C2)C3)nn(CN2CCN(Cc3ccccc3)CC2)c1=S
21

Next:
Need zone of inhibition at 200 µg/disc, item Fc1ccccc1NCn1nc(C23CC4CC(CC(C4)C2)C3)n(-c2ccc(Cl)cc2)c1=S
12

Need zone of inhibition at 200 µg/disc, item COc1ccccc1N1CCN(Cn2nc(C34CC5CC(CC(C5)C3)C4)n(C)c2=S)CC1
20

Need zone of inhibition at 200 µg/disc, item FC(F)(F)c1cccc(NCn2nc(C34CC5CC(CC(C5)C3)C4)n(-c3ccc(Cl)cc3)c2=S)c1
16

Need zone of inhibition at 200 µg/disc, item Fc1ccc(NCn2nc(C34CC5CC(CC(C5)C3)C4)n(-c3ccc(Cl)cc3)c2=S)cc1
16

----------
We begin with a simple list: items and their reported MIC.
Tested on: Bacillus subtilis
Test: Antibacterial activity against Bacillus subtilis IFO 3007 after 24 hrs by two fold dilution method
Format: functional
Conditions: IFO 3007, 24 h
Write it as a number; the unit µg/mL goes unstated.

Need MIC, item CCN1CCN(Cn2nc(C34CC5CC(CC(C5)C3)C4)n(/N=C/c3ccccc3O)c2=S)CC1
0.5

Next:
Need MIC, item COc1ccccc1N1CCN(Cn2nc(C34CC5CC(CC(C5)C3)C4)n(/N=C/c3ccc(O)cc3)c2=S)CC1
1

Need MIC, item Cn1c(C23CC4CC(CC(C4)C2)C3)nn(CN2CCN(c3cccc(C(F)(F)F)c3)CC2)c1=S
0.5

Need MIC, item CCN1CCN(Cn2nc(C34CC5CC(CC(C5)C3)C4)n(-c3ccc(Cl)cc3)c2=S)CC1
8

----------
We begin with a simple list: items and their reported zone of inhibition at 200 µg/disc.
System: Micrococcus luteus
Assay: Antibacterial activity against Micrococcus luteus IFO 3232 assessed as growth inhibition at 200 ug/disc after 24 hrs by agar disc-diffusion method
Assay type: functional
Conditions: IFO 3232, 24 h, read-out: DIZ
Write it as a number; the unit mm goes unstated.

Observe how each entry below is paired with its result.
Need zone of inhibition at 200 µg/disc, item COc1ccccc1N1CCN(Cn2nc(C34CC5CC(CC(C5)C3)C4)n(-c3ccc(Cl)cc3)c2=S)CC1
16

Need zone of inhibition at 200 µg/disc, item S=c1n(CNc2cc(Cl)cc(Cl)c2)nc(C23CC4CC(CC(C4)C2)C3)n1-c1ccc(Cl)cc1
11

Need zone of inhibition at 200 µg/disc, item S=c1n(CN2CCN(c3ccccc3)CC2)nc(C23CC4CC(CC(C4)C2)C3)n1-c1ccc(Cl)cc1
14

Need zone of inhibition at 200 µg/disc, item CCN1CCN(Cn2nc(C34CC5CC(CC(C5)C3)C4)n(-c3ccc(Cl)cc3)c2=S)CC1
15

Need zone of inhibition at 200 µg/disc, item FC(F)(F)c1ccc(NCn2nc(C34CC5CC(CC(C5)C3)C4)n(-c3ccc(Cl)cc3)c2=S)cc1
18

Need zone of inhibition at 200 µg/disc, item Fc1ccc(NCn2nc(C34CC5CC(CC(C5)C3)C4)n(-c3ccc(Cl)cc3)c2=S)cc1
12

Need zone of inhibition at 200 µg/disc, item CCN1CCN(Cn2nc(C34CC5CC(CC(C5)C3)C4)n(/N=C/c3ccccc3O)c2=S)CC1
24

Need zone of inhibition at 200 µg/disc, item Fc1ccccc1NCn1nc(C23CC4CC(CC(C4)C2)C3)n(-c2ccc(Cl)cc2)c1=S
12

Need zone of inhibition at 200 µg/disc, item Oc1ccc(/C=N/n2c(C34CC5CC(CC(C5)C3)C4)nn(CN3CCN(c4ccccc4)CC3)c2=S)cc1
19

Attention now shifts to the item below.
Need zone of inhibition at 200 µg/disc, item Cn1c(C23CC4CC(CC(C4)C2)C3)nn(CN2CCN(c3cccc(C(F)(F)F)c3)CC2)c1=S
28

----------
System: Bacillus subtilis
Experiment: Antibacterial activity against Bacillus subtilis IFO 3007 assessed as growth inhibition at 200 ug/disc after 24 hrs by agar disc-diffusion method
Assay type: functional
Conditions: IFO 3007, 24 h, read-out: DIZ
observation.type: zone of inhibition at 200 µg/disc

Need zone of inhibition at 200 µg/disc, item CCOc1ccc(NCn2nc(C34CC5CC(CC(C5)C3)C4)n(-c3ccc(Cl)cc3)c2=S)cc1
< 10 mm

Need zone of inhibition at 200 µg/disc, item CCOc1ccc(NCn2nc(C34CC5CC(CC(C5)C3)C4)n(C)c2=S)cc1
< 10 mm

Next:
Need zone of inhibition at 200 µg/disc, item S=c1n(CNc2ccc(Br)cc2)nc(C23CC4CC(CC(C4)C2)C3)n1-c1ccc(Cl)cc1
< 10 mm
